Source: patent US11286268B1

- Experimental System: recombinant eIF4E (Homo sapiens (Human))
- Experiment: Fluorescence polarization competition assay for eIF4E binding potency
- Assay Setup: fluorescence polarization competition, 75 nM recombinant eIF4E, 20 nM EDA-m7GDP-ATTO-550; IC50 class; read-out: elF4E FP
Reported Metric: IC50

>  <Compound>
Cc1cc(-c2cc(Cl)ccc2OCCn2c(C)nc3cc(C(F)F)c(CN4CCN(C)CC4)c(C#N)c3c2=O)c2scc(C(=O)O)c2n1

>  <IC50>
< 50 nM

$$$$
>  <Compound>
Cc1nc2cc(Cl)c(Cl)c(C#N)c2c(=O)n1CCOc1ccc(C#N)cc1-c1ccnc2c(C(=O)O)csc12

>  <IC50>
< 50 nM

$$$$
>  <Compound>
Cc1nc2cc(C(F)(F)F)c(CN3CCOCC3)c(C#N)c2c(=O)n1CC#Cc1ccc(Cl)cc1-c1ccnc2c(C(=O)O)csc12

>  <IC50>
< 50 nM

$$$$
>  <Compound>
Cc1cc(-c2cc(Cl)ccc2OCCn2c(C)nc3cc4c(c(C#N)c3c2=O)CN(C)C4)c2scc(C(=O)O)c2n1

>  <IC50>
< 50 nM

$$$$
>  <Compound>
Cc1nc2cc(CN(C)C)c(F)c(C#N)c2c(=O)n1CCOc1ccc(Cl)cc1-c1ccnc2c(C(=O)O)csc12

>  <IC50>
< 50 nM

$$$$
>  <Compound>
Cn1ccc2ncn(CCOc3ccc(Cl)cc3-c3cccc(C(=O)O)c3)c(=O)c21

>  <IC50>
> 1000 nM

$$$$
>  <Compound>
N#Cc1c(C(F)F)ccc2nc(C(F)F)n(CCOc3ccc(Cl)cc3-c3ccnc4c(C(=O)O)csc34)c(=O)c12

>  <IC50>
50 to 1000 nM

$$$$
>  <Compound>
Cc1ccc(-c2cc(Cl)ccc2OCCn2c(C)nc3c(C#N)nc(-c4ccccn4)c(C)c3c2=O)c2scc(C(=O)O)c12

>  <IC50>
50 to 1000 nM

$$$$
>  <Compound>
Cc1nc2ccc(CCN(C)C)c(C#N)c2c(=O)n1CCOc1ccc(Cl)cc1-c1ccc(C(F)(F)F)c2c(C(=O)O)csc12

>  <IC50>
< 50 nM

$$$$
>  <Compound>
C#Cc1c(C(=O)O)cccc1-c1cc(Cl)ccc1OCCn1c(C)nc2ccc(C(F)F)c(C#N)c2c1=O

>  <IC50>
< 50 nM

$$$$

Identify IC50 associated with the compound "Cc1nc2cc(C(F)(F)F)c(N3CCN(c4ccncc4)CC3)c(C#N)c2c(=O)n1CCOc1ccc(Cl)cc1-c1cccc(C(=O)O)c1" 50 to 1000 nM

###

The following molecules are listed with their measured IC50 values.
- Experimental System: recombinant eIF4E (Homo sapiens (Human), UniProt P06730)
- Sequence (P06730 whole entry): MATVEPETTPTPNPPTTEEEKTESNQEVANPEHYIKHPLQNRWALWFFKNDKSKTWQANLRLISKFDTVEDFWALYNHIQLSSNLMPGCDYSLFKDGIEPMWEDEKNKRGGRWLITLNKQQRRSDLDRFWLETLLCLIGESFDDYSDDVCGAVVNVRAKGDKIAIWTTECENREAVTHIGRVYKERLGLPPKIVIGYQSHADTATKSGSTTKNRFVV
- Experiment: Fluorescence polarization competition assay for eIF4E binding potency
- Assay Setup: fluorescence polarization competition, 75 nM recombinant eIF4E, 20 nM EDA-m7GDP-ATTO-550; IC50 class; read-out: elF4E FP

# count of solved cases: 4
>  <Chemical String>
N#Cc1c(F)cc(CCOc2ccc(Cl)cc2-c2cccc(C(=O)O)c2)c2c(=O)[nH]c(Nc3ccccc3)nc12

>  <Reported Metric>
IC50

>  <Recorded Measurement>
50 to 1000 nM

$$$$
>  <Chemical String>
Cc1cc(-c2cc(Cl)ccc2OCCn2c(C)nc3c(CN4CCN(C)CC4)c(C(F)(F)F)cc(C#N)c3c2=O)c2scc(C(=O)O)c2n1

>  <Reported Metric>
IC50

>  <Recorded Measurement>
< 50 nM

$$$$
>  <Chemical String>
CCc1ccc(-c2c(C(F)(F)F)cc3nc(C)n(CCOc4ccc(Cl)cc4-c4cc(C)nc5c(C(=O)O)csc45)c(=O)c3c2C#N)cn1

>  <Reported Metric>
IC50

>  <Recorded Measurement>
< 50 nM

$$$$
>  <Chemical String>
Cc1nc2cc(CN(C)C)c(C(F)F)c(C#N)c2c(=O)n1CCOc1ccc(Cl)cc1-c1ccnc2c(C(=O)O)csc12

>  <Reported Metric>
IC50

>  <Recorded Measurement>
< 50 nM

$$$$

Identify IC50 associated with the molecule "Cc1cc(-c2cc(Cl)ccc2OCCn2c(C)nc3cc(C(F)(F)F)c(-c4cccnc4)nc3c2=O)c2scc(C(=O)O)c2n1" < 50 nM

Identify IC50 associated with the molecule "Cc1nc2cnc(N(C)C3CCN(CC(C)(F)F)CC3)c(C#N)c2c(=O)n1CC#Cc1ccc(Cl)cc1-c1ccnc2c(C(=O)O)csc12" < 50 nM

###

The following molecules are listed with their measured pIC50 values.
- Experimental System: recombinant eIF4E (Homo sapiens (Human))
- Experiment: Fluorescence polarization competition assay for eIF4E binding potency
- Assay Setup: inhibition of eIF4E/EDA-m7GDP-ATTO-550 binding; calculated IC50 values, Table 4B; read-out: IC50
Give only the number. pIC50 is defined as minus log10 of concentration in molar units.

>  <Chemical String>
Cc1nc2cnc(N3CCN(CCF)CC3)c(C#N)c2c(=O)n1CCOc1ccc(Cl)cc1-c1ccnc2c(C(=O)O)csc12

>  <Reported Metric>
pIC50

>  <Recorded Measurement>
7.51

$$$$
>  <Chemical String>
Cc1nc2cc(C(F)(F)F)c(N3CCN(CC(F)F)CC3)nc2c(=O)n1CC#Cc1ccc(Cl)cc1-c1ccnc2c(C(=O)O)csc12

>  <Reported Metric>
pIC50

>  <Recorded Measurement>
6.83

$$$$
>  <Chemical String>
Cc1nc2cnc(N(C)C3CCN(C4CC(F)(F)C4)CC3)c(C#N)c2c(=O)n1CC#Cc1ccc(Cl)cc1-c1ccnc2c(C(=O)NS(=O)(=O)C3COC3)csc12

>  <Reported Metric>
pIC50

>  <Recorded Measurement>
7.90

$$$$
>  <Chemical String>
Cc1cc(-c2cc(Cl)ccc2OCCn2c(C)nc3cc(S(C)(=O)=O)c(N4CCN(C)CC4)cc3c2=O)c2scc(C(=O)O)c2n1

>  <Reported Metric>
pIC50

>  <Recorded Measurement>
7.01

$$$$
>  <Chemical String>
Cc1nc2cnc(N3CCC(N(CC(F)F)C4COC4)CC3)c(C#N)c2c(=O)n1CC#Cc1ccc(Cl)cc1-c1ccnc2c(C(=O)NS(=O)(=O)CC(F)F)csc12

>  <Reported Metric>
pIC50

>  <Recorded Measurement>
7.44

$$$$
>  <Chemical String>
Cc1nc2cnc(N(C)C3CCN(CC(F)(F)C4CC(F)(F)C4)CC3)c(C#N)c2c(=O)n1CC#Cc1ccc(Cl)cc1-c1ccnc2c(C(=O)O)csc12

>  <Reported Metric>
pIC50

>  <Recorded Measurement>
7.72

$$$$
>  <Chemical String>
Cc1nc2cc(C(F)(F)F)c(CCN(C)CC(F)F)c(C#N)c2c(=O)n1CCOc1ccc(Cl)cc1-c1ccnc2c(C(=O)O)csc12

>  <Reported Metric>
pIC50

>  <Recorded Measurement>
7.44

$$$$
>  <Chemical String>
Cc1nc2cnc(N(C)C3CCN(CC(F)(F)F)CC3)c(C#N)c2c(=O)n1CC#Cc1ccc(Cl)cc1-c1ccnc2c(C(=O)NS(=O)(=O)CC(F)F)csc12

>  <Reported Metric>
pIC50

>  <Recorded Measurement>
7.90

$$$$
>  <Chemical String>
Cc1nc2cnc(N(C)[C@H]3CC[C@H](CN(C)CC(C)(F)F)CC3)c(C#N)c2c(=O)n1CC#Cc1ccc(Cl)cc1-c1ccnc2c(C(=O)O)csc12

>  <Reported Metric>
pIC50

>  <Recorded Measurement>
7.24

$$$$
>  <Chemical String>
Cc1cc(-c2cc(Cl)ccc2OCCn2c(C)nc3cc(C(F)(F)F)c(CCN(C)C)c(C#N)c3c2=O)c2sc(C)c(C(=O)O)c2n1

>  <Reported Metric>
pIC50

>  <Recorded Measurement>
7.83

$$$$

Identify pIC50 associated with the molecule "CCN(c1ncc2nc(C)n(CC#Cc3ccc(Cl)cc3-c3ccnc4c(C(=O)NS(=O)(=O)c5cccnc5)csc34)c(=O)c2c1C#N)C1CCN(C2COC2)CC1" 7.96

Identify pIC50 associated with the molecule "Cc1nc2cc(C(F)(F)F)c(N3CCN(CCC(F)(F)F)CC3)c(C#N)c2c(=O)n1CCOc1ccc(Cl)cc1-c1ccnc2c(C(=O)O)csc12" 7.45

###

- Experimental System: recombinant eIF4E (Homo sapiens (Human), UniProt P06730)
- Experiment: Fluorescence polarization competition assay for eIF4E binding potency
- Assay Setup: inhibition of eIF4E/EDA-m7GDP-ATTO-550 binding by 50%; Table 4B calculated values; read-out: IC50
Reported Metric: pIC50
Give only the number. pIC50 is defined as minus log10 of concentration in molar units.

>  <Compound>
Cc1nc2cc(C#N)c(OC(F)F)c(C#N)c2c(=O)n1CCOc1ccc(Cl)cc1-c1ccnc2c(C(=O)O)csc12 [compound 547]

>  <Experimental System>
recombinant eIF4E (Homo sapiens (Human), UniProt P06730)

>  <Recorded Measurement>
6.87

$$$$
>  <Compound>
Cc1cc(-c2c(C(F)(F)F)cc3nc(C)n(CCOc4ccc(Cl)cc4-c4cc(C)nc5c(C(=O)O)csc45)c(=O)c3c2C#N)c(F)cn1 [compound 471]

>  <Experimental System>
recombinant eIF4E (Homo sapiens (Human), UniProt P06730)

>  <Recorded Measurement>
7.54

$$$$
>  <Compound>
Cc1nc2c(N3CCN(C)CC(F)(F)C3)ncc(C#N)c2c(=O)n1CCOc1ccc(Cl)cc1-c1ccnc2c(C(=O)O)csc12 [compound 838]

>  <Experimental System>
recombinant eIF4E (Homo sapiens (Human), UniProt P06730)

>  <Recorded Measurement>
7.41

$$$$
>  <Compound>
Cn1cc2c(C(=O)O)cc(-c3cc(Cl)ccc3OCCn3cnc4cnc(C#N)cc4c3=O)cc2n1 [compound 102]

>  <Experimental System>
recombinant eIF4E (Homo sapiens (Human), UniProt P06730)

>  <Recorded Measurement>
5.32

$$$$

Report value only: pIC50, recombinant eIF4E (Homo sapiens (Human), UniProt P06730), CCc1cc(-c2cc(Cl)ccc2OCCn2c(C)nc3c(C)nc(-c4ccccc4)c(C#N)c3c2=O)c2scc(C(=O)O)c2n1 [compound 1015] 7.71

Report value only: pIC50, recombinant eIF4E (Homo sapiens (Human), UniProt P06730), Cc1cc(-c2cc(Cl)ccc2OCCn2c(C)nc3cc(C(F)(F)F)c(-c4ccncc4)c(C#N)c3c2=O)c2scc(C(=O)O)c2n1 [compound 629] 8.19

Report value only: pIC50, recombinant eIF4E (Homo sapiens (Human), UniProt P06730), Cc1nc2cc(C(F)(F)F)cc(C#N)c2c(=O)n1CCOc1ccc(Cl)cc1-c1csc2c(C(=O)O)ccnc12 [compound 299] 7.65
